assay: LogDoct,7.4 by shake-flask method (1-octanol / 0.2 M phosphate buffer pH 7.4); assay type: physicochemical; conditions: mean ± SD, read-out: LogDoct,7.4 (n = 3)
ATTRIBUTE_MEASURED: logD

COMPOUND: [11CH3]Oc1ccc(Cl)c(C(=O)NCC23CC4CC(CC(F)(C4)C2)C3)c1 [[^11C]2]
logD: 2.93
//
COMPOUND: [11CH3]Oc1ccc(Cl)c(C(=O)NCC23CC4CC(CC(C4)C2)C3)c1 [[^11C]1]
logD: 2.88
//
COMPOUND: [11CH3]Oc1ccc(Cl)c(C(=O)NCC23CC4(F)CC(F)(CC(F)(C4)C2)C3)c1 [[^11C]SMW139]
logD: 2.7
//
COMPOUND: [11CH3]Oc1ccc(Cl)c(C(=O)NCC23CC4CC(F)(CC(F)(C4)C2)C3)c1 [[^11C]3]
logD: 2.71
